Cited source: PubChem BioAssay (NCI)

The compounds listed here are annotated with their TGI.
Test system: U251 CNS
Test: NCI tumour cell line growth inhibition, 48 h

Compound	TGI
COC1/C=C/C(C)C(C(C)C(OC)C(C)CCC(=O)C(C)C(CC(=O)O)OC)OC(=O)/C=C/C=C(\C)CC(OC)CC2=CC(=O)O[C@H](C2)C(C)C(OC)CC(OC)/C=C/C(C)C(OC)C1 (stereo partly specified)	> 4.35 µM
C[CH2][Sn]([CH2]C)([O]C(=O)c1ccc(OC)c(OC)c1OC)[O]C(=O)c1ccc(OC)c(OC)c1OC	> 100 µM
Cc1ccc(S(=O)(=O)Nc2ccc(-c3cc(-c4cccc(F)c4)c(C#N)c(N)n3)cc2)cc1	9.62 µM
N#Cc1c(N2CCN(c3ccc([N+](=O)[O-])cc3)CC2)[n+](=O)c2ccccc2n1[O-]	> 100 µM
CCCCCCCCC/C=C1/CC(CO)(COC(=O)c2ccccc2)OC1=O (stereo unspecified)	27.1 µM
Cc1ccc2nc(NC(=O)/C(=N\NC(=S)NN)C3C(=O)NC(=S)NC3=O)sc2c1	> 100 µM
Nc1ncnc2c1ccn2[C@@H]1O[C@H]([C@H](O)c2ccc(Cl)c(F)c2)[C@@H](O)[C@H]1O	> 100 µM
O=c1c2c(c1=O)-c1ccccc1CN2	> 100 µM
CCCCOC(=O)c1cc(C(=CCC[C@H]2CC[C@@]3(C)[C@@H](CC[C@@H]4[C@@H]3CC[C@]3(C)[C@@H](C(C)CCCC(C)C)CC[C@@H]43)C2)c2cc(Cl)c(O)c(C(=O)OCCCC)c2)cc(Cl)c1O (stereo partly specified)	> 50 µM
CSCCC(C(=O)O)N(CC1(O)OCC(O)C(O)C1O)N=O (stereo unspecified)	> 100 µM
Clc1c2ccccc2nc2c1[nH]c1ccccc12	> 100 µM
CC(=O)OCC1OC(n2nc(Cc3ccccc3)c(=S)[nH]c2=S)C(OC(C)=O)C(OC(C)=O)C1OC(C)=O (stereo unspecified)	73.4 µM
CC(C)C1N2CCCCC2[C@@H]2c3[nH]c4ccccc4c3CCN12 (stereo partly specified)	> 100 µM
COc1ccc(/C(=N\Nc2ccccn2)c2ccccn2)cc1	17.1 µM
O=C(O[C@H]1CCN2C[C@H]3C[C@H](CN4C(=O)CCC[C@H]34)[C@@H]2C1)c1ccc(O)cc1	> 100 µM
C=CCc1c(O)c(C(=O)/C=C/c2ccccc2)c(OC)c2ccoc12	7.46 µM
COc1c2c(cc3c1C(=O)Cc1ccc4c(c1CN(C)CC3)OCO4)OCO2	> 100 µM
CC1=NN(c2nc(N)nc(/C(C#N)=C\c3cccc([N+](=O)[O-])c3)n2)C(C)(C)C1	38.4 µM
CC1(C)N=C(N)N=C(N)N1c1cccc(Br)c1	> 100 µM
Cc1csc(NNC(=O)Nc2ccccc2)n1	> 100 µM
COc1cnc2c(c1)C(=O)c1c-2n(CCCN2CCNCC2)c(=O)c2cc([N+](=O)[O-])ccc12	1.16 µM
COC(=O)C1=C(CCC[C@H](C)O[Si](C)(C)C(C)(C)C)NC(=O)N2[C@@H](CCO)CC[C@H]12	29.6 µM
O=c1oc2ccc([N+](=O)[O-])cc2cc1Br	> 100 µM
CCCCCC[C@H](C)NC(=O)c1ccc(Nc2nc3ccccc3c3occc23)cc1	> 100 µM
O=C(N/N=C/C=C/c1ccc([N+](=O)[O-])o1)c1ccc(C(=O)N/N=C/C=C/c2ccc([N+](=O)[O-])o2)cc1	> 52.8 µM
C/C(Cc1ccc2c(c1)OCO2)=N\NC(=O)C(C)Sc1nnc(SC(C)C(=O)N/N=C(\C)Cc2ccc3c(c2)OCO3)s1 (stereo unspecified)	> 100 µM
COc1cc2ccc1OCc1cccc(n1)COc1ccc(cc1OC)C=NCCNCCN=C2	> 100 µM
CCOC(=O)C(=O)Nc1ccccc1C(C)C	> 100 µM
COc1cc(/C=N/NC2=NCCCCN2)ccc1O	> 100 µM
C/C(=N/N=C(N)N)c1ccc(NC(=O)Nc2ccc(/C(C)=N/N=C(N)N)cc2)cc1	24.3 µM
CC1=C2C3OC(=O)C(C)C3CCC2(C)C=CC1=Nc1ccccc1 (stereo unspecified)	> 100 µM
